// endpoint IC50 / system Rat Steroid C17,20-lyase (Rattus norvegicus, UniProt P11715)
value-kind: IC50

{"columns": ["compound", "experimental-system", "value-kind", "result"],
 "data": [
  ["CC(C)C(O)(c1ccc2cc3c(cc2c1)CNC3=O)c1c[nH]cn1 (stereo not shown) [Example 10]", "Rat Steroid C17,20-lyase (Rattus norvegicus, UniProt P11715)", "IC50", "42 nM"],
  ["CC(C)CC(O)(c1ccc2c3c(ccc2c1)C(=O)N(C)C3)c1c[nH]cn1 (stereo not shown) [Example 14]", "Rat Steroid C17,20-lyase (Rattus norvegicus, UniProt P11715)", "IC50", "22 nM"],
  ["CC(C)C(O)(c1ccc2c3c(ccc2c1)C(=O)N(C)C3)c1c[nH]cn1 (stereo not shown) [Example 2]", "Rat Steroid C17,20-lyase (Rattus norvegicus, UniProt P11715)", "IC50", "15 nM"],
  ["CC(C)C(O)(c1ccc2c3c(ccc2c1)C(=O)NC3)c1c[nH]cn1 (stereo not shown) [Example 1]", "Rat Steroid C17,20-lyase (Rattus norvegicus, UniProt P11715)", "IC50", "< 10 nM"]
]}
